Listing: inhibition at 0.2 µM of selected compounds
# Target Under Test: CDK4 (Homo sapiens)
# Construct: endogenous in cells; host or cells: Calu-1
# Sequence (P11802 2-303 limits assumed): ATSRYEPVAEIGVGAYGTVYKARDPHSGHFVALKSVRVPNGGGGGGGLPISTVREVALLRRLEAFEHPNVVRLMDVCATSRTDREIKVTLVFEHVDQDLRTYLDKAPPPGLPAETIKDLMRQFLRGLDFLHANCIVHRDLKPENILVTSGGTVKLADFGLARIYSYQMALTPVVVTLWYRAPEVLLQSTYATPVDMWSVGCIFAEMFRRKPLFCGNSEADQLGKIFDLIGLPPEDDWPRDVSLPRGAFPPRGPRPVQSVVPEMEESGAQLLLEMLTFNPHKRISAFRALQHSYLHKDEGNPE
# Sequence (P24385 whole entry partner): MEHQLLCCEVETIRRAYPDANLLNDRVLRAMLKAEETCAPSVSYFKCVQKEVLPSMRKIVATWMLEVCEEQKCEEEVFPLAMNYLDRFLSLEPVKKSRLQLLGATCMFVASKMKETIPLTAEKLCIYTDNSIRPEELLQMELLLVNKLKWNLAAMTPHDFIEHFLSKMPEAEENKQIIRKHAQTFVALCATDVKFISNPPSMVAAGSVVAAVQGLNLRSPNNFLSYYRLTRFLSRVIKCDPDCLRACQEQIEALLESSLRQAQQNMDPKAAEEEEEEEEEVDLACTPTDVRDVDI
# Sequence (Q16531 2-1140 limits assumed, further chain): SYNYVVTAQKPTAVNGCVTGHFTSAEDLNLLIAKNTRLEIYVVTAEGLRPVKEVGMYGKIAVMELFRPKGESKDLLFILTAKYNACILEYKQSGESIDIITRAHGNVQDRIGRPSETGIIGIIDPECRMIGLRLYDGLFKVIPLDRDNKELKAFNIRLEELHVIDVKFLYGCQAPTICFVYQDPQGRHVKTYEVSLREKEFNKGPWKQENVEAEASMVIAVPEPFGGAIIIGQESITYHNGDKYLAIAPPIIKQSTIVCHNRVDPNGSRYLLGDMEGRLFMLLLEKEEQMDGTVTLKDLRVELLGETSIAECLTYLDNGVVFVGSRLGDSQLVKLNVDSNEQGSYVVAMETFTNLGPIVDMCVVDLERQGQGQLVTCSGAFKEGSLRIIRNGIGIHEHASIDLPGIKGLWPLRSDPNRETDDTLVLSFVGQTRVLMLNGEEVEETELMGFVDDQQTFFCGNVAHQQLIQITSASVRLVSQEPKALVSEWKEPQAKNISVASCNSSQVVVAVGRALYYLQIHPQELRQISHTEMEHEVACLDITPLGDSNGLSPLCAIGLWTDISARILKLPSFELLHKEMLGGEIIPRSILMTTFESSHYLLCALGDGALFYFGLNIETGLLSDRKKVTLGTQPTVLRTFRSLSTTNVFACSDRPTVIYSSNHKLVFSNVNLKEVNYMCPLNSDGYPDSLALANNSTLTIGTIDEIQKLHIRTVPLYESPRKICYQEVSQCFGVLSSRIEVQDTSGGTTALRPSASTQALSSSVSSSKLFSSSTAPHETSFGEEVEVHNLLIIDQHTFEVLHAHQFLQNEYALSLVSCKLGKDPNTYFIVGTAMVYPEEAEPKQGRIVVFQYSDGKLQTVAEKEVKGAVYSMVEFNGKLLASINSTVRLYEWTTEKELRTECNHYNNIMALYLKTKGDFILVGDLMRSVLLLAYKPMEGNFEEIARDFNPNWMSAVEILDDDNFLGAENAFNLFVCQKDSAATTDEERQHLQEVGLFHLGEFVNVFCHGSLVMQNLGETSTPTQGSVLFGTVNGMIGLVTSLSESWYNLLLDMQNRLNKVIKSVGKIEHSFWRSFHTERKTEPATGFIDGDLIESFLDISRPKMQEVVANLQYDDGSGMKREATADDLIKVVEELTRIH
# Experimental Protocol: CDK4 percentage degradation in Calu-1 cells (immunoblotting)
# Format: cell-based
# Conditions Used: Calu-1 cells, 200 nM, 16 hours; read-out: CDK4 Degradation (200 nM)

CC(=O)c1c(C)c2cnc(Nc3ccc(N4CCN(CC(=O)NCCCCCCC(=O)Nc5ccccc5C(=O)Nc5nc(C)c(C)s5)CC4)cn3)nc2n(C2CCCC2)c1=O [CPD-169]    < 30%
CC(=O)c1c(C)c2cnc(Nc3ccc(N4CCN(CC(=O)NCCOCCOCCC(=O)Nc5ccccc5C(=O)Nc5ncc(C)[nH]5)CC4)cn3)nc2n(C2CCCC2)c1=O [CPD-064]    < 30%
CC(=O)c1c(C)c2cnc(Nc3ccc(N4CCN(CC(=O)NCCOCCOCCC(=O)Nc5ccc(N(C)C)cc5C(=O)Nc5nc(C)c(C)s5)CC4)cn3)nc2n(C2CCCC2)c1=O [CPD-151]    50 to 80%
CC(=O)c1c(C)c2cnc(Nc3ccc(N4CCN(CC(=O)NCCOCCOCCC(=O)Nc5ccccc5C(=O)Nc5ccc(F)cn5)CC4)cn3)nc2n(C2CCCC2)c1=O [CPD-081]    > 80%
COC(=O)c1cnc(NC(=O)c2ccc(NCCOCCOCCOCCOCCOCCNC(=O)CN3CCN(c4ccc(Nc5ncc6c(C)c(C(C)=O)c(=O)n(C7CCCC7)c6n5)nc4)CC3)cc2C)s1 [CPD-032]    < 30%

Problem: Give its inhibition at 0.2 µM value. Item: CC(=O)c1c(C)c2cnc(Nc3ccc(N4CCN(CC(=O)NCCOCCOCCOCCOCCOCCNc5ccc(C(=O)Nc6ncc(C(F)(F)F)s6)c(C)c5)CC4)cn3)nc2n(C2CCCC2)c1=O [CPD-003]
Solution: < 30%

Problem: One more compound: CC(=O)c1c(C)c2cnc(Nc3ccc(N4CCN(CC(=O)NCCOCCOCCC(=O)Nc5ccccc5C(=O)Nc5ccc(C)s5)CC4)cn3)nc2n(C2CCCC2)c1=O [CPD-065]
Solution: 50 to 80%

Problem: One more compound: CC(=O)c1c(C)c2cnc(Nc3ccc(N4CCN(CC(=O)NCCCCCCCCCNC(=O)CNc5ccc(C(=O)Nc6ncc(C)s6)c(C)c5)CC4)cn3)nc2n(C2CCCC2)c1=O [CPD-035]
Solution: 30 to 50%

Problem: One more compound: CC(=O)c1c(C)c2cnc(Nc3ccc(N4CCN(CC(=O)NCCOCCOCCC(=O)Nc5ccccc5C(=O)Nc5cc(C)n(C)n5)CC4)cn3)nc2n(C2CCCC2)c1=O [CPD-052]
Solution: 50 to 80%

Problem: One more compound: CC(=O)c1c(C)c2cnc(Nc3ccc(N4CCN(CC(=O)NCCCCCCCNc5nc(C)ccc5C(=O)Nc5nc(C)c(C)s5)CC4)cn3)nc2n(C2CCCC2)c1=O [CPD-338]
Solution: 50 to 80%

Problem: One more compound: CC(=O)c1c(C)c2cnc(Nc3ccc(N4CCN(CC(=O)NCCCCCNc5ccc(C)c(C(=O)Nc6nc(C)c(C)s6)c5)CC4)cn3)nc2n(C2CCCC2)c1=O [CPD-116]
Solution: < 30%
